- System: ACHN
- assay comment: NCI tumour cell line growth inhibition, 48 h
Activity calls are given as the source filed them. Rule as the data show it: active = GI50 up to about 1.1 µM and inactive = higher.
readout kind: GI50

{"columns": ["compound", "target or test system", "GI50"],
 "data": [
  ["Oc1ccc(Cl)cc1-c1cc(-c2ccccc2)nc(S)n1", "ACHN", "30.3 µM (inactive)"]
]}

Quick one: GI50 for "CCOC(=O)NC(=S)c1ccc(O)c2ccccc12" ?
80.5 µM (inactive)

Ok, now COC(=O)C(=O)C(C(=O)C(=O)Nc1nc2ccc(C)cc2s1)c1nc2ccc([N+](=O)[O-])cc2nc1O (centres undefined)
> 100 µM (inactive)

Next compound: "Cn1c(=O)c2nc(CCS)[nH]c2n(C)c1=O"
> 100 µM (inactive)

###

- System: HOP-92
- assay comment: NCI tumour cell line growth inhibition, 48 h
Active and inactive are the calls of the source. Cut-off read from the data, not from the text of the source: active = GI50 up to about 1.1 µM and inactive = higher.
readout kind: GI50

{"columns": ["compound", "GI50"],
 "data": [
  ["Cn1cnc(/C=C/C#N)c1", "> 100 µM (inactive)"],
  ["CC1(C)S[C@@H]2[C@H](N3C(=O)c4ccccc4C3=O)CN2[C@H]1NC(=O)N[C@@H]1N2C[C@@H](N3C(=O)c4ccccc4C3=O)[C@H]2SC1(C)C", "42.2 µM (inactive)"],
  ["CCCc1nc(NC#N)nc(C(=O)NC23CC4CC(CC(C4)C2)C3)c1C", "> 100 µM (inactive)"]
]}

Given the compound "NC1=Nc2ccccc2Sc2nccn21" , what is its reported GI50?
15.1 µM (inactive)

Now the same for COc1cc(/C=C/C=C2\CC(C)C/C(=C\C=C\c3ccc(O)c(OC)c3)C2=O)ccc1O (stereo not given)
7.23 µM (inactive)

// query: "CN(C)c1ccc(/C=C(\NC(=O)c2ccccc2)c2nc3ccc4c(c3[nH]2)C(=O)c2ccccc2C4=O)cc1"
12.8 µM (inactive)

// next record "CC(C)(C)c1ccc(O)c(C(c2ccc([N+](=O)[O-])cc2)c2cc(C(C)(C)C)ccc2O)c1"
2.02 µM (inactive)

Can you check C=CC1(C)/C(=N\O)C(C)(CC)C(=O)N1O (stereo not given) next?
> 100 µM (inactive)

Now try Cc1cc(OCC(O)CO)ccc1-c1ccccc1 (stereo not given) .
92.5 µM (inactive)

Also "O=Cc1ccc(-c2cc(C=O)c(-c3cccs3)[nH]2)s1" ?
32.7 µM (inactive)

###

- System: U-251
- assay comment: NCI tumour cell line growth inhibition, 48 h
Calls of active or inactive are those of the source. No stated cut-off is given here; in the data, active = GI50 up to about 1.1 µM and inactive = higher.
readout kind: GI50

{"columns": ["molecule", "GI50"],
 "data": [
  ["CCC(CCCC[C@H]1CC[C@@H]2CC(=O)C[C@H]12)OC (some centres not stated)", "> 100 µM (inactive)"]
]}

Param item = O=C(Nc1ccc(N2C(=O)CSC2c2ccccc2O)cc1)c1ccc(N2C(=O)CSC2c2ccccc2O)cc1 (configuration not stated) ; retrieve measured GI50.
34 µM (inactive)

Next up: "COCOc1ccc(C(=O)Oc2cccc3c2OC(C)(C)O3)c(OCOC)c1"
27.9 µM (inactive)

Follow-up entry: COC(=O)C1=C(O)C(C(=O)OC)[C@@]2(O)[C@@H](C(=O)OC)CC[C@@H]1[C@@H]2C(=O)OC (some centres not stated)
22.3 µM (inactive)

###

# key: entry, value: GI50
- Test system: OVCAR-8
- assay comment: NCI tumour cell line growth inhibition, 48 h
Activity calls are given as the source filed them. Rule as the data show it: active = GI50 up to about 1.1 µM and inactive = higher.

Solved cases (3 shown):
{"columns": ["molecule", "target or test system", "assay value"],
 "data": [
  ["Clc1ccccc1/C=C\\C1(c2ccccc2)OCCO1", "OVCAR-8", "17.7 µM (inactive)"],
  ["N#CC(C(=O)c1ccccc1F)c1nc2cc(C(F)(F)F)ccc2s1 (configuration not stated)", "OVCAR-8", "31.6 µM (inactive)"],
  ["CC(=O)c1cc(C)n2c1CS[C@@H]2c1ccccc1", "OVCAR-8", "70.8 µM (inactive)"]
]}

Which GI50 value belongs to NC(=S)N/N=C(\CC1OC(=O)c2ccccc21)c1ccc(Cl)cc1 (configuration not stated) ?
18 µM (inactive)

Same question, "Cc1ccc(S(=O)(=O)Oc2ccc(OS(=O)(=O)c3ccc(C)cc3)c3c2C(=O)c2ccccc2C3=O)cc1" this time
> 100 µM (inactive)

Thanks! And "COc1nc2ccc(COc3ccc(C(=O)O)cc3)cc2nc1OC" ?
36.4 µM (inactive)

Then CN1C(=O)C(O)CC1c1ccc(C(F)(F)F)cc1 (configuration not stated) ?
> 100 µM (inactive)
